Value source: patent US20170081400A1

Please respond with reported TL1A Binding Level (Late) for every item in the list.
# testTarget: T1, human TL1A extracellular domain with N-terminal HIS and FLAG tag (human, UniProt O95150 72-251)
# T1 construct: the whole entry is named
# T1 sequence: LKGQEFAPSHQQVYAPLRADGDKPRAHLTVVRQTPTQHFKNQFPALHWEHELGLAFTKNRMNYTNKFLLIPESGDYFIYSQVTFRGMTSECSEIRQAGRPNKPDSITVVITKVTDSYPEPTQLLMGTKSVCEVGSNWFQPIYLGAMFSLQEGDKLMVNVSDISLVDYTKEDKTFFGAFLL
# assayExplanation: SPR Run 5, Ab from supernatant captured on Protein A, TL1A 5 ug/mL, timepoint 220
Express the result in RU but write the number alone.

Supply measured TL1A Binding Level (Late) of 320-395 (antibody, human IgG1, name in Kabat numbering, V domains shown, human IgG1, lambda) VH: QVQLVQSGAEVKKPGASVKVSCKASWYTFTSYDINWVRQAPGQGLEWMGWLNPNSGNTGYAQKFQGRVTMTADRSTSTAYMELSSLRSEDTAVYYCAREVPETAAFEYWGQGTLVTVSS VL: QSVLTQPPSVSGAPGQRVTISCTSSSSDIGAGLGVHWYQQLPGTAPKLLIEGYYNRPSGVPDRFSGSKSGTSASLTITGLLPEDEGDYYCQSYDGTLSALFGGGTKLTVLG in your reply.
12

Indicate its recorded TL1A Binding Level (Late); the binder in question is 320-403 (antibody, human IgG1, name in Kabat numbering, V domains shown, human IgG1, lambda) VH: QVQLVQSGAEVKKPGASVKVSCKASGWTFTSYDINWVRQAPGQGLEWMGWLNPNSGNTGYAQKFQGRVTMTADRSTSTAYMELSSLRSEDTAVYYCAREVPETAAFEYWGQGTLVTVSS VL: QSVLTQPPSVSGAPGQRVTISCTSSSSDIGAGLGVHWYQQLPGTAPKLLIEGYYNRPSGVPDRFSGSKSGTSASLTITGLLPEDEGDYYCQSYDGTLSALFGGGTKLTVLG
10

Supply reported TL1A Binding Level (Late) belonging to this binder: 320-422 (antibody, human IgG1, name in Kabat numbering, V domains shown, human IgG1, lambda) VH: QVQLVQSGAEVKKPGASVKVSCKASGYTFASYDINWVRQAPGQGLEWMGWLNPNSGNTGYAQKFQGRVTMTADRSTSTAYMELSSLRSEDTAVYYCAREVPETAAFEYWGQGTLVTVSS VL: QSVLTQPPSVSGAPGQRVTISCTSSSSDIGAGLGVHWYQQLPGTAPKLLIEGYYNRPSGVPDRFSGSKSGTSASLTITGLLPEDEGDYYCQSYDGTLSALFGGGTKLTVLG
9

Answer with the recorded TL1A Binding Level (Late) of 320-421 (antibody, human IgG1, V domains shown, human IgG1, lambda; the other rows have T at 28 and F at 29, so F29Y is probably meant) VH: QVQLVQSGAEVKKPGASVKVSCKASGYTYTSYDINWVRQAPGQGLEWMGWLNPNSGNTGYAQKFQGRVTMTADRSTSTAYMELSSLRSEDTAVYYCAREVPETAAFEYWGQGTLVTVSS VL: QSVLTQPPSVSGAPGQRVTISCTSSSSDIGAGLGVHWYQQLPGTAPKLLIEGYYNRPSGVPDRFSGSKSGTSASLTITGLLPEDEGDYYCQSYDGTLSALFGGGTKLTVL only.
8

Note down TL1A Binding Level (Late) recorded for 320-375 (antibody, human IgG1, name in Kabat numbering, V domains shown, human IgG1, lambda) VH: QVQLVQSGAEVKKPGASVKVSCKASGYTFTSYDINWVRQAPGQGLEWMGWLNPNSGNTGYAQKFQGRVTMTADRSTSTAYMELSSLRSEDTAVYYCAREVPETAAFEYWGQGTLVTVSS VL: QSVLTQPPSVSGAPGQRVTISCTSSSSDIGAGLGVHWYQQLPGTAPKLLIEGYYNRPSGVPDRFSGSKSGTSASLTITGLLPEDEGDYYCQSYDGTLSHLFGGGTKLTVLG
-1

Give the reported TL1A Binding Level (Late) for this binder. 320-405 (antibody, human IgG1, name in Kabat numbering, V domains shown, human IgG1, lambda) VH: QVQLVQSGAEVKKPGASVKVSCKASGYSFTSYDINWVRQAPGQGLEWMGWLNPNSGNTGYAQKFQGRVTMTADRSTSTAYMELSSLRSEDTAVYYCAREVPETAAFEYWGQGTLVTVSS VL: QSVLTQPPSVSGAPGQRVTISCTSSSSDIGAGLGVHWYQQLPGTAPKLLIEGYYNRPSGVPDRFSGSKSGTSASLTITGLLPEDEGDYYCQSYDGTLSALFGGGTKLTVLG
9

Look up and report measured TL1A Binding Level (Late) for this entry: 320-425 (antibody, human IgG1, name in Kabat numbering, V domains shown, human IgG1, lambda) VH: QVQLVQSGAEVKKPGASVKVSCKASGYTFDSYDINWVRQAPGQGLEWMGWLNPNSGNTGYAQKFQGRVTMTADRSTSTAYMELSSLRSEDTAVYYCAREVPETAAFEYWGQGTLVTVSS VL: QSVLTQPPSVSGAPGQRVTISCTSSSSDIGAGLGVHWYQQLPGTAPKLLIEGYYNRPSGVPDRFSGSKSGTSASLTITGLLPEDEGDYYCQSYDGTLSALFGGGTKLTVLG
12
